Entries and their viability, T/C values follow.
- System: 282377-053-R-J1-PDC complex spheroid viability
- assay-details: Anticancer human tumor 282377-053-R-J1-PDC patient-derived colon adenocarcinoma cell line growth inhibition [RAS]
- cond: second compound 0.316 µM; first compound 1 µM; hits give low values
- Text: RAS pathway inhibitors in Combinations in Complex Spheroids A high-throughput screen of multi-cell type tumor spheroids was designed to identify active combinations of RAS pathway inhibitors and targeted small molecules. Complex spheroids include a stromal component modeled by human endothelial cells (HUVEC) and fibroblasts modeled by human mesenchymal stem cells (MSCs). […] Compounds. […] If the clinical Cmax for an agent had not been determined, the highest concentration tested was 10 microM. […]

molecule: CC(C)NCC(C(=O)N1CCN(c2ncnc3c2C(C)CC3O)CC1)c1ccc(Cl)cc1 (configuration not stated) + C=CC(=O)N1CCN(c2nc(OCC3CCCN3C)nc3c(F)c(-c4nc(N)cc(C)c4C(F)(F)F)c(Cl)cc23)C(C)C1
tested-target: 282377-053-R-J1-PDC complex spheroid viability
viability, T/C / %: 98

molecule: CC(Nc1ccc2c(c1)OCCn1cc(N3C(=O)OCC3C(F)F)nc1-2)C(N)=O (configuration not stated) + C=CC(=O)N1CCN(c2nc(OCC3CCCN3C)nc3c(F)c(-c4nc(N)cc(C)c4C(F)(F)F)c(Cl)cc23)C(C)C1
tested-target: 282377-053-R-J1-PDC complex spheroid viability
viability, T/C / %: 94.3

molecule: Cc1nc(N2CCC3(CC2)COC(C)C3N)c(CO)nc1Sc1ccnc(N)c1Cl (configuration not stated) + C#Cc1c(F)ccc2cc(O)cc(-c3ncc4c(N5CC6CCC(C5)N6)nc(OCC56CCCN5CC(F)C6)nc4c3F)c12
tested-target: 282377-053-R-J1-PDC complex spheroid viability
viability, T/C / %: 100

molecule: CC(Nc1ccc2c(c1)OCCn1cc(N3C(=O)OCC3C(F)F)nc1-2)C(N)=O (configuration not stated) + C#Cc1c(F)ccc2cc(O)cc(-c3ncc4c(N5CC6CCC(C5)N6)nc(OCC56CCCN5CC(F)C6)nc4c3F)c12
tested-target: 282377-053-R-J1-PDC complex spheroid viability
viability, T/C / %: 104

molecule: O=C(c1ccc(F)c(F)c1Nc1ccc(I)cc1F)N1CC(O)([C@@H]2CCCCN2)C1 + C#Cc1c(F)ccc2cc(O)cc(-c3ncc4c(N5CC6CCC(C5)N6)nc(OCC56CCCN5CC(F)C6)nc4c3F)c12
tested-target: 282377-053-R-J1-PDC complex spheroid viability
viability, T/C / %: 15.6

molecule: CC(=O)OC12COC1CC(O)C1(C)C(=O)C(O)C3=C(C)C(OC(=O)C(O)C(NC(=O)OC(C)(C)C)c4ccccc4)CC(O)(C(OC(=O)c4ccccc4)C21)C3(C)C (configuration not stated) + C#Cc1c(F)ccc2cc(O)cc(-c3ncc4c(N5CC6CCC(C5)N6)nc(OCC56CCCN5CC(F)C6)nc4c3F)c12
tested-target: 282377-053-R-J1-PDC complex spheroid viability
viability, T/C / %: 30.2

molecule: CC(=O)OC12COC1CC(O)C1(C)C(=O)C(O)C3=C(C)C(OC(=O)C(O)C(NC(=O)OC(C)(C)C)c4ccccc4)CC(O)(C(OC(=O)c4ccccc4)C21)C3(C)C (configuration not stated) + C=CC(=O)N1CCN(c2nc(OCC3CCCN3C)nc3c(F)c(-c4nc(N)cc(C)c4C(F)(F)F)c(Cl)cc23)C(C)C1
tested-target: 282377-053-R-J1-PDC complex spheroid viability
viability, T/C / %: 25.5

###

- Test system: 282377-053-R-J1-PDC complex spheroid viability
- assay-details: Anticancer human tumor 282377-053-R-J1-PDC cell line growth inhibition [RAS];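 also: spheroids exposed to agents for seven days before readout; luminescence viability as percent of DMSO vehicle control wells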
- cond: second compound 3.16 µM; first compound 0.0316 µM; hits give low values
Listing of entries alongside the reported viability, T/C.

compound: Nc1ccn(C2OC(CO)C(O)C2(F)F)c(=O)n1 (stereo not drawn) + C#Cc1c(F)ccc2cc(O)cc(-c3ncc4c(N5CC6CCC(C5)N6)nc(OCC56CCCN5CC(F)C6)nc4c3F)c12
tested-target: 282377-053-R-J1-PDC complex spheroid viability
viability, T/C (%): 89.1
//
compound: CCN1CCN(Cc2ccc(Nc3ncc(F)c(-c4cc(F)c5nc(C)n(C(C)C)c5c4)n3)nc2)CC1 + C#Cc1c(F)ccc2cc(O)cc(-c3ncc4c(N5CC6CCC(C5)N6)nc(OCC56CCCN5CC(F)C6)nc4c3F)c12
tested-target: 282377-053-R-J1-PDC complex spheroid viability
viability, T/C (%): 103
//
compound: Cc1nc(N2CCC3(CC2)COC(C)C3N)c(CO)nc1Sc1ccnc(N)c1Cl (stereo not drawn) + C#Cc1c(F)ccc2cc(O)cc(-c3ncc4c(N5CC6CCC(C5)N6)nc(OCC56CCCN5CC(F)C6)nc4c3F)c12
tested-target: 282377-053-R-J1-PDC complex spheroid viability
viability, T/C (%): 99.3

###

- System: 282377-053-R-J1-PDC complex spheroid viability
- assay-details: Anticancer human tumor 282377-053-R-J1-PDC cell line growth inhibition [RAS];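 also: spheroids exposed to agents for seven days before readout; luminescence viability as percent of DMSO vehicle control wells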
- cond: second compound 0.03 µM; first compound 0.0316 µM; hits give low values
Reported values of viability, T/C for individual entries

compound: CC1(O)CCCC1n1c(=O)c(C(F)F)cc2cnc(NC3CCN(S(C)(=O)=O)CC3)nc21 (configuration not stated) + CCn1c(-c2cc(N3CCN(C)CC3)cnc2C(C)OC)c2c3cc(ccc31)-c1csc(n1)CC(NC(=O)C1CC1C)C(=O)N1CCCC(N1)C(=O)OCC(C)(C)C2
unit: %
viability, T/C: 112
//
compound: C=CC(=O)Nc1cc(Nc2nccc(-c3cn(C)c4ccccc34)n2)c(OC)cc1N(C)CCN(C)C + CCn1c(-c2cccnc2C(C)OC)c2c3cc(ccc31)N1CCOC(CC(NC(=O)C(C(C)C)N(C)C(=O)C3(F)CCN(C(=O)C#CC(C)(C)N(C)C)CC3)C(=O)N3CCCC(N3)C(=O)OCC(C)(C)C2)C1
unit: %
viability, T/C: 113

###

- System: 282377-053-R-J1-PDC complex spheroid viability
- assay-details: Anticancer human tumor 282377-053-R-J1-PDC cell line growth inhibition [RAS];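 also: spheroids exposed to agents for seven days before readout; luminescence viability as percent of DMSO vehicle control wells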
- cond: second compound 0.03 µM; first compound 0.000949 µM; hits give low values
# key: entry, value: viability, T/C
measure: viability, T/C (%)

compound: CCc1c2c(nc3ccc(O)cc13)-c1cc3c(c(=O)n1C2)COC(=O)[C@]3(O)CC + CCn1c(-c2cccnc2C(C)OC)c2c3cc(ccc31)N1CCOC(CC(NC(=O)C(C(C)C)N(C)C(=O)C3(F)CCN(C(=O)C#CC(C)(C)N(C)C)CC3)C(=O)N3CCCC(N3)C(=O)OCC(C)(C)C2)C1
measure: viability, T/C
reported-result: 95
//
compound: CC1(C)CCC(Nc2ncc(C(F)(F)F)c(-c3c[nH]c4c(P(C)(C)=O)c(C#N)ccc34)n2)CN1 (centres undefined) + CCn1c(-c2cc(N3CCN(C)CC3)cnc2C(C)OC)c2c3cc(ccc31)-c1csc(n1)CC(NC(=O)C1CC1C)C(=O)N1CCCC(N1)C(=O)OCC(C)(C)C2
measure: viability, T/C
reported-result: 109
//
compound: CCc1c2c(nc3ccc(O)cc13)-c1cc3c(c(=O)n1C2)COC(=O)[C@]3(O)CC + CCn1c(-c2cc(N3CCN(C)CC3)cnc2C(C)OC)c2c3cc(ccc31)-c1csc(n1)CC(NC(=O)C1CC1C)C(=O)N1CCCC(N1)C(=O)OCC(C)(C)C2
measure: viability, T/C
reported-result: 116
//
compound: CC1(C)CCC(Nc2ncc(C(F)(F)F)c(-c3c[nH]c4c(P(C)(C)=O)c(C#N)ccc34)n2)CN1 (centres undefined) + CCn1c(-c2cccnc2C(C)OC)c2c3cc(ccc31)N1CCOC(CC(NC(=O)C(C(C)C)N(C)C(=O)C3(F)CCN(C(=O)C#CC(C)(C)N(C)C)CC3)C(=O)N3CCCC(N3)C(=O)OCC(C)(C)C2)C1
measure: viability, T/C
reported-result: 89.3

###

Each item that follows carries a reported viability, T/C.
- System: 282377-053-R-J1-PDC complex spheroid viability
- assay-details: Anticancer human tumor 282377-053-R-J1-PDC cell line growth inhibition [RAS];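 also: spheroids exposed to agents for seven days before readout; luminescence viability as percent of DMSO vehicle control wells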
- cond: second compound 0.1 µM; first compound 0.316 µM; hits give low values

compound: CC(=O)OC12COC1CC(O)C1(C)C(=O)C(O)C3=C(C)C(OC(=O)C(O)C(NC(=O)OC(C)(C)C)c4ccccc4)CC(O)(C(OC(=O)c4ccccc4)C21)C3(C)C (configuration not stated) + C#Cc1c(F)ccc2cc(O)cc(-c3ncc4c(N5CC6CCC(C5)N6)nc(OCC56CCCN5CC(F)C6)nc4c3F)c12
viability, T/C: 23.4%
//
compound: Cc1nc(N2CCC3(CC2)COC(C)C3N)c(CO)nc1Sc1ccnc(N)c1Cl (configuration not stated) + C=CC(=O)N1CCN(c2nc(OCC3CCCN3C)nc3c(F)c(-c4nc(N)cc(C)c4C(F)(F)F)c(Cl)cc23)C(C)C1
viability, T/C: 110%
